- assay-target: Tyrosyl-tRNA synthetase, putative (Trypanosoma cruzi (strain CL Brener))
- Sequence (whole entry): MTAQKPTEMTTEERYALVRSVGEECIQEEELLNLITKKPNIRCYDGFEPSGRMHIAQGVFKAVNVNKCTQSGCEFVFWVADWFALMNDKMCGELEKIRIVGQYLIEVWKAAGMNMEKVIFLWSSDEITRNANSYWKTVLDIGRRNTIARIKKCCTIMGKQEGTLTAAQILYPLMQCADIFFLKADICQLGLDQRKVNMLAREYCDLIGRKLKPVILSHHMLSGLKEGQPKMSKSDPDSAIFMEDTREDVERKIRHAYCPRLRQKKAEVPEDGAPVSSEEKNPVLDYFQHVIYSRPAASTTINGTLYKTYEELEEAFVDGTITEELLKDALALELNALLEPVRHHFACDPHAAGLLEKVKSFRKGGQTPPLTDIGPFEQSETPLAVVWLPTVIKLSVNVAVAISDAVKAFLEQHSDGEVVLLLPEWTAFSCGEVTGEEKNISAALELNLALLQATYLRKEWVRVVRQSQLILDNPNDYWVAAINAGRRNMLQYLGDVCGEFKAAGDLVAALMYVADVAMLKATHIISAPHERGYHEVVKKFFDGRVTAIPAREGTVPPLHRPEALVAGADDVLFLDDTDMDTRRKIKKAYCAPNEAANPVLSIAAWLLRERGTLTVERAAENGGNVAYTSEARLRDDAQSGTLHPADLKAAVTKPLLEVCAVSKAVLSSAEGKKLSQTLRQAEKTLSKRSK
- protocol-summary: Trypanosoma cruzi tyrosyl tRNA synthetase (TcYRS) SOP
- Type: functional
- Parameters: scale not given: direction of the effect not stated beside the values
- experimental-context: 30 µM
Consider the following compounds; for each one, report its Percent Effect.
Lab book: enter the figure in %, no units written.

[Q] Consider the compound shown here: `Cc1oc(C)c(C(=O)NCc2ccccn2)c1C` What is its recorded Percent Effect?
[A] 7.32

[Q] GET /values?readout=Percent Effect&item= `COc1cc(C(=O)N2CCC(c3n[nH]c(C4CC4)n3)CC2)ccc1C`
[A] -2.53

[Q] // returns reported Percent Effect for input `CCOC(=O)N1CCC(C(=O)c2cc(F)ccc2F)CC1`
[A] -4.88

[Q] Look up Percent Effect for this compound: CC(C)c1nccn1C1CCCN(C(=O)c2cnc[nH]2)C1 (stereo not drawn)
[A] 16.1

[Q] Report Percent Effect for O=C(Cc1ccc2c(c1)CCO2)N1CCCCC1Cn1cccn1 (stereo not drawn) please.
[A] 7.79

[Q] Given the compound CC(C)c1nc(C2CCCN2C(=O)c2nccnc2N)no1 (stereo not drawn) , what is its reported Percent Effect?
[A] 23.2

[Q] # input compound: `Nc1cc2c(nn1)CCN(C(=O)CC1CCCC1)C2` ; wanted: its Percent Effect
[A] 13.9

[Q] Please give the measured Percent Effect for this compound: Cc1cnc(N2CCC3(CCCN(c4ccc(C)nn4)C3)C2)nc1 (stereo not drawn)
[A] 13.6

[Q] Which Percent Effect value is on record for COc1ccc(C2CCCN2C(=O)CCNc2ncccn2)cc1 (stereo not drawn) ?
[A] -5

[Q] So what does the record say about Percent Effect for Cc1cc(CN2CCN(CC(O)C(C)(C)C)CC2)no1 (stereo not drawn) ?
[A] 16.5

[Q] # lookup: Percent Effect of `CCN(CC)C(=O)Cn1ccc2cc(NC(=O)C3CC3)ccc21`
[A] 21.9

[Q] Could you share which Percent Effect value was measured for `CCn1c(=O)nc2n1C(=O)N(c1cccc(Cl)c1)C2` ?
[A] 15.4

[Q] Would you mind telling me what Percent Effect value was observed for `Cc1ccc(F)c(OC2(C(=O)O)CCN(C(=O)N3CCCC3)CC2)c1` ?
[A] 0

[Q] # query: Percent Effect of entry COCC1CCN(c2cc(C3CN(C)CCO3)nc(C)n2)CC1 (stereo not drawn)
[A] -3.85

[Q] Find the recorded Percent Effect belonging to `CCn1nc(C)c2nc(C(C)C)nc(NCCCO)c21` and report it.
[A] 12.8

[Q] Look up Percent Effect for this compound: `CCOc1cccc(C(=O)NCCC(=O)Nc2ccncc2)c1`
[A] 10.4

[Q] Fill in: Percent Effect of Cc1cnc(C(=O)N2CCCC(n3ccnc3C)C2)cn1 (stereo not drawn) is ___
[A] 18.5

[Q] GET /values?readout=Percent Effect&item= CC(c1ccccc1)n1c(SCC(=O)O)nnc1-c1ccccc1Cl (stereo not drawn)
[A] 12.8

[Q] Entry `CC(C)S(=O)(=O)c1nnc(CCNC(=O)OC(C)(C)C)o1` : reported Percent Effect = ?
[A] 2.56

[Q] Requested read-out: Percent Effect. Entry: CNS(=O)(=O)c1ccc(C(=O)N2CCCC2c2ccccc2)o1 (stereo not drawn)
[A] 18.5

[Q] Given the compound `CCN1CCN(C(=O)c2cnn(-c3ccccc3Cl)c2)CC1` , what is its reported Percent Effect?
[A] 13.6

[Q] Dear colleague, I am looking for the recorded Percent Effect of the following compound: `Cc1[nH]ccc1C(=O)Nc1cccc(CN2CCC(CO)CC2)c1`
[A] 13

[Q] Entry under review: O=C(NCCCn1nc2ccccn2c1=O)NC1CCC(O)CC1 (stereo not drawn) . Reported Percent Effect?
[A] 2.5

[Q] Name the reported Percent Effect value associated with the compound FC(F)(F)C1CCCn2c(CNCc3ccsc3)nnc21 (stereo not drawn)
[A] 18.5

[Q] Need Percent Effect of CCC(O)CN1CCN(C(=O)c2ccnc(N(C)C)c2)CC1 (stereo not drawn) , thanks.
[A] 12.2

[Q] Reported Percent Effect, compound `C[C@@H]1CN(C(=O)c2ccsc2)C[C@]12CCN(c1ccsc1)C2=O` : ____
[A] 3.85

[Q] May I ask what Percent Effect has been recorded for `COc1ccc(Cl)cc1NCC(=O)NCCNc1cnccn1` ?
[A] 13.6

[Q] # get_value(readout='Percent Effect', item= CCN(CC1CCOC1)C(=O)c1ccccc1NS(=O)(=O)CC (stereo not drawn) )
[A] 18.5

[Q] Param item = Fc1cnc(N2CCCC3(CN(Cc4ccncc4)CCO3)C2)nc1 (stereo not drawn) ; retrieve measured Percent Effect.
[A] 16.7

[Q] Fill in the blank: the reported Percent Effect of Cc1cnn(CC2CN(Cc3nc(-c4ccoc4)no3)CCO2)c1 (stereo not drawn) is ____.
[A] 11.1

[Q] // query Percent Effect value for entry Cc1cccc(CCC(=O)N2CCCC(c3cc(C(N)=O)[nH]n3)C2)c1 (stereo not drawn)
[A] 11.1

[Q] Record request: Percent Effect value, item OCC1CCCN1c1cc(NCc2ccc(Cl)s2)ncn1 (stereo not drawn)
[A] 15.2

[Q] What does the data say about its Percent Effect? Entry: `Clc1ccccc1C1(c2ccnc(CC3CC3)n2)CCNCC1`
[A] 16.1

[Q] Name the recorded Percent Effect for CCC1CCCCN1C(=O)c1ccc2[nH]nnc2c1 (stereo not drawn) .
[A] -11

[Q] Quick one: Percent Effect of CCc1nccn1C1CCCN(C(=O)c2cn3cccnc3n2)C1 (stereo not drawn) ?
[A] -1.24

[Q] // Percent Effect lookup, key: `COc1ccccc1CC(=O)NCc1c(C)nc2cc(=O)[nH]n2c1C`
[A] 7.32

[Q] Fill blank: measured Percent Effect of the compound O=C(Nc1nncs1)NC1CCc2ccccc21 (stereo not drawn) is ____.
[A] 16.1

[Q] Item under review: `Cc1ncnc2c1CCN(Cc1cccs1)CC2` . Reported Percent Effect?
[A] 7.5

[Q] // Percent Effect lookup, key: `COc1ccnc(N2CCN(C(=O)c3cnn(C)c3C3CC3)CC2)n1`
[A] 16.1

[Q] Fill in: Percent Effect of `CN(Cc1ccco1)[C@@H]1CN(C(=O)c2ccnnc2)[C@@H]2CCCO[C@H]12` is ___
[A] 13.6

[Q] Which Percent Effect value belongs to COc1cccc(N2CCN(CC(O)c3cc(C)sc3C)CC2)c1 (stereo not drawn) ?
[A] 22.1

[Q] // query Percent Effect value for entry O=C(c1cc(=O)[nH]c(=O)[nH]1)N1CCCCC1c1nc2cc(F)ccc2[nH]1 (stereo not drawn)
[A] 7.69

[Q] Returns the measured Percent Effect for the input compound. Input: `Cc1nc(CN2C[C@@H]3CN(C(=O)C4CC4)C[C@@H]3C2=O)cs1`
[A] 10.3

[Q] Name the recorded Percent Effect for CC(=O)c1ccc(C(=O)NCCCOC(C)c2ccccc2)s1 (stereo not drawn) .
[A] 10.4

[Q] State the recorded Percent Effect for this entry: Cn1cc(N2CCC3(CCN(S(=O)(=O)C4CC4)C3)C2=O)cn1 (stereo not drawn)
[A] 5

[Q] If you can, please state the reported Percent Effect value of CCc1nccn1C1CCCN(C(=O)c2ccc3[nH]c(=O)[nH]c3c2)C1 (stereo not drawn) .
[A] 21.9

[Q] Given the compound CN1CCCC(CNC(=O)N2CCN(Cc3ccon3)CC2)C1 (stereo not drawn) , what is its reported Percent Effect?
[A] 8.64

[Q] Look at this compound and give its reported Percent Effect. `O=C(Nc1cnn(CCN2CCOCC2)c1)c1ccccc1O`
[A] 19.5
